- Format: in vivo, human
- CONDITION_SET: human, plasma, po, 50 mg, Cmax, total plasma acalabrutinib; single oral 50-mg dose, fasted; Severe, Child-Pugh class C (n = 8); geometric mean (geometric CV%)
QUANTITY_KIND: Cmax (ng/mL)
Hi! Could you send only the number? It should be in ng/mL, unit omitted.

Task item: Retrieve Cmax measured for CC#CC(=O)N1CCC[C@H]1c1nc(-c2ccc(C(=O)Nc3ccccn3)cc2)c2c(N)nccn12 and print it.
Reply: 726

---

- Type: in vivo, human
- CONDITION_SET: human, plasma, po, 50 mg, Vz/F, acalabrutinib; single oral 50-mg dose; Severe (n = 8); arithmetic mean (SD)
QUANTITY_KIND: Vd/F (L)
Hi! Could you send only the number? It should be in L, unit omitted.

Task item: Retrieve Vd/F measured for CC#CC(=O)N1CCC[C@H]1c1nc(-c2ccc(C(=O)Nc3ccccn3)cc2)c2c(N)nccn12 and print it.
Reply: 167
